Attribution: paper PMC9082315

Listing: Kd of selected binders
target system: monomeric SARS-CoV-2 RBD (S residues 332-534) with Flag peptide and 8xHis-tag (SARS-CoV-2 (WA1 strain), UniProt P0DTC2 332-534)
test: SPR
Give the number; nM is assumed, so skip it.

binder	Kd (nM)
hcAb 1.10 (Nb 1.10 fused to the human IgG1 hinge and Fc) (Fc fusion) QVQLVESGGGSVQAGGSLRLSCAASGYTYSTCRKGWYRQAPGKERELVASITADGATYYLDSVKGRLTISQDNAKNTVYLQMNSLKPEDTAVYYCAASVKDFTCTFNSWGQGTQVTVSS	0.77
hcAb 1.29 (Nb 1.29 fused to the human IgG1 hinge and Fc) (Fc fusion) QVQLVESGGGSVQAGGSLRLSCAASGYTINTDAVAWFRQAPGKGDERVAVIYTGSGNTNYADSVKGRFTISQDNAKNTVYLQMNSLKPEDTALYYCASGYYGASGYDFNNWGQGTQVTVSS	0.63

For the binder shown here, hcAb 2.20 (Nb 2.20 fused to the human IgG1 hinge and Fc) (Fc fusion) QVQLVESGGGSVQAGGSLRLSCAASGYTYNNYYMGWFRQAPGKEREGVAAINSDGLDTYVADSVKGRFTISRDNAKDTVHLQMNSLKPEDTAIYSCATGRTVYYSGYDFRLSVDDYWGQGTQVTVSS , give the reported Kd. 0.21

And the next one, hcAb 2.11 (Nb 2.11 fused to the human IgG1 hinge and Fc) (Fc fusion) QVQLVESGGGSVQAGGSLRLSCAASGDASNRKCVSWFRRAPGKEREGVALIFPVGSSTAYADSVKGRFTISQDSAKDTVYLQMNNLKPEDSGTYYCAAVSWGGRCNLETQTVTFWGQGTQVTVSS ? 0.16
